tested on: HaCaT; experiment: Antiproliferative activity against human HaCaT cells assessed as concentration required for total cell growth inhibition after 48 hrs by SRB assay; type: functional
One threshold, 50 µM, splits the recorded TGI values: lower ones are True, equal or higher ones are False.

The following molecules have reported results that may help.
{"MOLECULE": "COc1cc(OC)c(OC)cc1/C=C/C1(C)C=CC(=O)O1 (stereo unspecified)", "CAT": "False"}
{"MOLECULE": "CC1(/C=C/c2cccc(O)c2)C=CC(=O)O1 (stereo unspecified)", "CAT": "False"}
{"MOLECULE": "CC1(/C=C/c2ccc(C(F)(F)F)cc2)C=CC(=O)O1 (stereo unspecified)", "CAT": "True"}
{"MOLECULE": "COc1ccccc1/C=C/C1(C)C=CC(=O)O1 (stereo unspecified)", "CAT": "True"}
{"MOLECULE": "CC1(/C=C/c2ccccc2C(F)(F)F)C=CC(=O)O1 (stereo unspecified)", "CAT": "True"}
{"MOLECULE": "COc1ccc(/C=C/C2(C)C=CC(=O)O2)c(OC)c1 (stereo unspecified)", "CAT": "False"}
{"MOLECULE": "COc1cc(/C=C/C2(C)C=CC(=O)O2)cc(OC)c1OC (stereo unspecified)", "CAT": "False"}
{"MOLECULE": "COc1cc(OC)c(/C=C/C2(C)C=CC(=O)O2)c(OC)c1 (stereo unspecified)", "CAT": "False"}
{"MOLECULE": "COc1cccc(/C=C/C2(C)C=CC(=O)O2)c1 (stereo unspecified)", "CAT": "True"}
{"MOLECULE": "COc1cccc2c1C(=O)c1c(O)c3c(c(O)c1C2=O)C[C@@](O)(C(=O)CO)C[C@@H]3O[C@H]1C[C@H](N)[C@H](O)[C@H](C)O1", "CAT": "True"}

Asked: Please determine if COc1ccc(/C=C/C2(C)C=CC(=O)O2)cc1OC (stereo unspecified) is below 50 µM in terms of TGI.
Given back: False

----------
tested on: UACC-62; assay: Antiproliferative activity against human UACC62 cells assessed as concentration required for total cell growth inhibition after 48 hrs by SRB assay; format: functional; details: UACC-62, 48 h
VALUE_KIND: TGI

Below, each entry is followed by its recorded TGI result.
{"COMPOUND": "O=C1C=CC[C@H](/C=C/c2ccccc2)O1", "TGI": "17.4 µM"}
{"COMPOUND": "COc1cc(OC)c(OC)cc1/C=C/C1(C)C=CC(=O)O1 (stereo not given)", "TGI": "127 µM"}
{"COMPOUND": "COc1cc(/C=C/C2(C)C=CC(=O)O2)cc(OC)c1O (stereo not given)", "TGI": "24.6 µM"}
{"COMPOUND": "COc1cc(OC)c(/C=C/C2(C)C=CC(=O)O2)c(OC)c1 (stereo not given)", "TGI": "208 µM"}
{"COMPOUND": "COc1ccc(/C=C/C2(C)C=CC(=O)O2)c(OC)c1 (stereo not given)", "TGI": "80.1 µM"}

Dear reader, for each entry below, please note its TGI.
1. COc1cccc2c1C(=O)c1c(O)c3c(c(O)c1C2=O)C[C@@](O)(C(=O)CO)C[C@@H]3O[C@H]1C[C@H](N)[C@H](O)[C@H](C)O1
2. C[C@]1(/C=C/c2ccccc2)CC=CC(=O)O1

Given back:
0.2 µM
37.2 µM

Please supply TGI for each of the following items, keeping them in order.
1. COc1ccc(/C=C/C2(C)C=CC(=O)O2)cc1OC (stereo not given)
2. CC1(/C=C/c2ccc(F)cc2)C=CC(=O)O1 (stereo not given)
3. CC1(/C=C/c2ccccc2O)C=CC(=O)O1 (stereo not given)
4. COc1cc(/C=C/C2(C)C=CC(=O)O2)cc(OC)c1OC (stereo not given)
5. CC1(/C=C/c2ccccc2)C=CC(=O)O1 (stereo not given)
6. COc1cccc(/C=C/C2(C)C=CC(=O)O2)c1 (stereo not given)
7. CC1(/C=C/c2ccccc2C(F)(F)F)C=CC(=O)O1 (stereo not given)
8. CC1(/C=C/c2ccc(C(F)(F)F)cc2)C=CC(=O)O1 (stereo not given)

Given back:
1: 84.1 µM; 2: 55.3 µM; 3: 92.5 µM; 4: 178 µM; 5: 97.2 µM; 6: 55.8 µM; 7: 17.7 µM; 8: 15.5 µM

Provide reported TGI for each item, in the same order as listed.
1. COc1ccccc1/C=C/C1(C)C=CC(=O)O1 (stereo not given)
2. COc1ccc(/C=C/C2(C)C=CC(=O)O2)c(OC)c1OC (stereo not given)
3. CC1(/C=C/c2ccc(O)cc2)C=CC(=O)O1 (stereo not given)

Given back:
1: 31 µM; 2: 71.5 µM; 3: 55.3 µM

Please state TGI for every compound in the list that follows.
1. COc1ccc(/C=C/C2(C)C=CC(=O)O2)cc1 (stereo not given)
2. CC1(/C=C/c2cccc(O)c2)C=CC(=O)O1 (stereo not given)

Given back:
1. 147 µM
2. 108 µM
